Target: Voltage-gated potassium channel subunit beta-2 (Rattus norvegicus) (UniProt P62483)
Sequence (P62483 whole entry, looked up): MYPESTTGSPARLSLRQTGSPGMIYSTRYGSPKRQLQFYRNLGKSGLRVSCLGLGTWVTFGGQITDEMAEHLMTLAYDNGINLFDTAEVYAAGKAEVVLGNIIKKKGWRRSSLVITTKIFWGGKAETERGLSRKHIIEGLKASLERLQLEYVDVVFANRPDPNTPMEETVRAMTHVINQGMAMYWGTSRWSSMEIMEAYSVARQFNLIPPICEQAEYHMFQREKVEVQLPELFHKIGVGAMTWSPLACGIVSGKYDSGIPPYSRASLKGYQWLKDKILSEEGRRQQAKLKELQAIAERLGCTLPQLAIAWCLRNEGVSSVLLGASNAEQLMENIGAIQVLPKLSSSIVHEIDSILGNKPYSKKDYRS
Assay: KvBeta enzyme negative modulators, primary screen, biochemical, NADPH fluorescence (AID 622);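 note: slope of raw intensity against log time taken from 70 to 1610 s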
Settings: recombinant KvBeta, 4-cyanobenzaldehyde reduction, at 10 µM, stronger effect = higher value
Label no if fluorescence slope falls below -0.5; label yes in every other case.

INSERT INTO measurements (compound, study_system, class) VALUES
  ('O=C(c1ccccc1)C(CCC(CN1CCOCC1)C(=O)c1ccccc1)CN1CCOCC1 (stereo unspecified)', 'Voltage-gated potassium channel subunit beta-2 (Rattus norvegicus) (UniProt P62483)', 'no'),
  ('CC1=C(/C=C/C(C)=C/C=C/C(C)=C/C(=O)O)C(C)(C)CCC1', 'Voltage-gated potassium channel subunit beta-2 (Rattus norvegicus) (UniProt P62483)', 'yes'),
  ('CN1C(=O)N(c2ccccc2)C(Nc2nncs2)C1(C)C (stereo unspecified)', 'Voltage-gated potassium channel subunit beta-2 (Rattus norvegicus) (UniProt P62483)', 'yes'),
  ('C[C@]12C=CC(=O)C=C1CC[C@@H]1[C@@H]2[C@@H](O)C[C@@]2(C)[C@H]1CC[C@]2(O)C(=O)COC(=O)CCC(=O)O', 'Voltage-gated potassium channel subunit beta-2 (Rattus norvegicus) (UniProt P62483)', 'yes'),
  ('CCCOc1ccc(N2C(=O)C3ON(c4ccccc4)C(c4ccc(O)c(OC)c4)C3C2=O)cc1 (stereo unspecified)', 'Voltage-gated potassium channel subunit beta-2 (Rattus norvegicus) (UniProt P62483)', 'yes'),
  ('C[C@H](CS)C(=O)N1CCC[C@H]1C(=O)O', 'Voltage-gated potassium channel subunit beta-2 (Rattus norvegicus) (UniProt P62483)', 'yes'),
  ('COc1cc(N2C(=O)CSC23C(=O)Nc2ccccc23)cc(OC)c1OC (stereo unspecified)', 'Voltage-gated potassium channel subunit beta-2 (Rattus norvegicus) (UniProt P62483)', 'yes'),
  ('C=CCn1c(SCC(=O)NC23CC4CC(CC(C4)C2)C3)nc(O)cc1=O', 'Voltage-gated potassium channel subunit beta-2 (Rattus norvegicus) (UniProt P62483)', 'no'),
  ('Cn1c(=O)c2c3c(sc2n2c(SCc4ccccc4)nnc12)CCCC3', 'Voltage-gated potassium channel subunit beta-2 (Rattus norvegicus) (UniProt P62483)', 'yes');

====

Assay: DUSP6 inhibitors restoring Erk phosphorylation by chemical complementation, primary imaging in DUSP6-transfected HeLa (AID 609)
Details: HeLa MKP-3 transfected, phospho-Erk imaging KS statistic; measured here: cell density z-score; at 10 µM; cells stimulated with TPA for 15 min
PROPERTY: z-score

INSERT INTO measurements (compound, meas_value) VALUES
  ('COc1ccc(/C(O)=C2\C(=O)C(=O)N(c3cc(C)on3)C2c2ccccc2OC)cc1 (centres undefined)', 1.8),
  ('CCCCCc1nc2sc3c(c2c(=O)n1N)CCC3', -1.49),
  ('Cc1noc(NS(=O)(=O)c2ccc(N)cc2)c1C', 0.375),
  ('CCSc1nc(N)c2c3c(sc2n1)CCC3', 0.476),
  ('COc1ccc(C2(CN(C(C)=O)C(C)=O)CCCC2)cc1OC', -0.215),
  ('COc1cc2c(C(=O)N3CCN(c4ccccc4)CC3)c(C)oc2cc1Br', 1.72),
  ('COc1cccc(-c2nc(NCC3CCCO3)c3ccccc3n2)c1O (centres undefined)', -1.22),
  ('O=C(O)c1cc(O)c2c(c1)C(=O)c1cccc(O)c1C2=O', 0.571),
  ('Nc1nonc1-c1noc(N2CCOCC2)n1', 0.592),
  ('C=CCc1cccc(/C=N/c2ncn[nH]2)c1O', -0.648),
  ('COc1cc2[nH]c3c(=O)n(CCN(C(C)C)C(C)C)cnc3c2cc1OC', 0.411),
  ('O=C1C2CC=C(Cl)CC2C(=O)N1CNc1ccccn1 (centres undefined)', -0.409),
  ('O=c1[nH]c(=O)n(Cc2ccco2)c2c1C(C(F)(F)F)(C(F)(F)F)N=C(c1ccco1)N2', -0.683),
  ('CC(C)C1Cc2c(C#N)c(N)sc(=S)c2CO1 (centres undefined)', 1.33),
  ('COc1ccc(/C(O)=C2\C(=O)C(=O)N(c3cc(C)on3)C2c2cccc(OC)c2OC)cc1C (centres undefined)', -0.589),
  ('Nc1ccc(Cl)cc1/C(=N/O)c1ccccc1', 0.198),
  ('COC(=O)c1ccc(C2/C(=C(/O)c3ccc(OC)cc3)C(=O)C(=O)N2c2cc(C)on2)cc1 (centres undefined)', 0.558),
  ('CCOc1cccc(-c2nnc3sc(COc4ccccc4)nn23)c1', 1.73),
  ('CCC1=C(C(=O)OC)C(c2cc(OC)ccc2OC)C(C#N)=C(N)O1 (centres undefined)', 1.11),
  ('Nc1nnc(CC2=CCCCC2)s1', -0.93),
  ('CCOC(=O)c1sc2c(c1C)c(=O)c(C(=O)OCC)cn2CC', -0.851),
  ('CC1(C)Cc2c(C#N)c(N3CCOCC3)nc(-c3ccccc3)c2CO1', -0.0371),
  ('CC(C)C1Cc2c(sc3c2c(=O)n(Cc2ccccc2)c2nncn32)CO1 (centres undefined)', 1.56),
  ('COC(=O)C(NC(C)=O)(Nc1ccc(Br)cc1)C(=O)OC', 0.275);

The reported measurements were obtained from PubChem BioAssay.
